# Tested on: SARS-CoV-2 S1 (antigen of the Carterra SPR kinetics) (SARS-CoV-2, UniProt P0DTC2 16-685)
# Experimental details: Carterra SPR
Quantity measured: kon (M⁻¹ s⁻¹)

1-28 (antibody, V domains shown, also called variant 1-28) VH: EVQLLESGGGLVQPGGSLRLSCAASGFTFSSYGMSWVRQAPGKGLEWVSAISGSGGGTYYADSVKGRFTISRDNSKNTLYLQMNSLRAEDTAVYYCASSSSWQFDYWGQGTLVTVSS VL: QSALTQPASVSGSPGQSITISCTGTSSGVGSYNLVSWYQQHPGKAPKLMIYEGSQRPSGVSNRFSGSKSGNTASLTISGLQAEDEADYYCCSYAGSSTHYVFGGGTKLTVL | 1.23e+08
1-5 (antibody, V domains shown, also called variant 1-5) VH: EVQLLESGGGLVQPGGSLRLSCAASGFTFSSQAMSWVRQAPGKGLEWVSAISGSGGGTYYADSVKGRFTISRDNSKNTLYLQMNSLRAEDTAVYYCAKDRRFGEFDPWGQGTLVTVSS VL: QSALTQPASVSGSPGQSITISCTGTSSGVGSYNLVSWYQQHPGKAPKLMIYEASKRPSGVSNRFSGSKSGNTASLTISGLQAEDEADYYCCSYAGSYTFAVFGGGTKLTVL | 2150
1-42 (antibody, V domains shown, also called variant 1-42) VH: EVQLLESGGGLVQPGGSLRLSCAASGVTFSSYAMSWVRQAPGKGLEWVSAITGSGGSTYYADSVKGRFTISRDNSKNTLYLQMNSLRAEDTAVYYCAKHGSGTIFGVVIAKYYFDYWGQGTLVTVSS VL: QSALTQPASVSGSPGQSITISCTGTSSDVGRYNLVSWYQQHPGKAPKLMIYEGGKRPSGVSNRFSGSKSGNTASLTISGLQAEDEADYYCCSYASSSTLVFGGGTKLTVL | 9.1e+08
1-27 (antibody, V domains shown, also called variant 1-27) VH: EVQLLESGGGLVQPGGSLRLSCAASGFTFSSYAMTWVRQAPGKGLEWVSAISGSGGGTYYADSVKGRFTISRDNSKNTLYLQMNSLRAEDTAVYYCASSSSWQFDYWGQGTLVTVSS VL: QSALTQPASVSGSPGQSITISCTGTSSYVGHYNLVSWYQQHPGKAPKLMIYEGSRRPSGVSNRFSGSKSGNTASLTISGLQAEDEADYYCCSYAGSYTHYVFGGGTKLTVL | 227000
1-24 (antibody, V domains shown, also called variant 1-24) VH: EVQLLESGGGLVQPGGSLRLSCAASGFTFSSYAMNWVRQAPGKGLEWVSIISGSGGSTYYADSVKGRFTISRDNSKNTLYLQMNSLRAEDTAVYYCAREGYRDYLWYFDLWGQGTLVTVSS VL: QSALTQPASVSGSPGQSITISCTGTSSDVGYYNLVSWYQQHPGKAPKLMIYEGNKRPSGVSNRFSGSKSGNTASLTISGLQAEDEADYYCCSYAGGSVVFGGGTKLTVL | 1.94e+08
1-3 (antibody, V domains shown, also called variant 1-3) VH: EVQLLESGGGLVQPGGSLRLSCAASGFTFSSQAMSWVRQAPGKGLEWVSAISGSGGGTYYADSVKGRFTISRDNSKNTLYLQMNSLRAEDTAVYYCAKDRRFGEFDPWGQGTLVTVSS VL: QSALTQPASVSGSPGQSITISCTGISSDVGSYNLVSWYQQHPGKAPKLMIYEGTKRPSGVSNRFSGSKSGNTASLTISGLQAEDEADYYCCSYAGSSSFVVFGGGTKLTVL | 1.42e+06
1-23 (antibody, V domains shown, also called variant 1-23) VH: EVQLLESGGGLVQPGGSLRLSCAASGFTFSSYAISWVRQAPGKGLEWVSIISGSGGSTYYADSVKGRFTISRDNSKNTLYLQMNSLRAEDTAVYYCAREGYRDYLWYFDLWGQGTLVTVSS VL: QSALTQPASVSGSPGQSITISCTGTSNDVGSYNLVSWYQQHPGKAPKLMIYEGNKRPSGVSNRFSGSKSGNTASLTISGLQAEDEADYYCCSYAGSYTVFGGGTKLTVL | 506000
1-30 (antibody, V domains shown, also called variant 1-30) VH: EVQLLESGGGLVQPGGSLRLSCAASGFTFSSYAMTWVRQAPGKGLEWVSAISGSGGSTFYADSVKGRFTISRDNSKNTLYLQMNSLRAEDTAVYYCTRPPYGDYGDYWGQGTLVTVSS VL: QSALTQPASVSGSPGQSITISCTGTSRDVGSYNLVSWYQQHPGKAPKLMIYEGTKRPSGVSNRFSGSKSGNTASLTISGLQAEDEADYYCCSYAGSRTPVVFGGGTKLTVL | 43900
1-29 (antibody, V domains shown, also called variant 1-29) VH: EVQLLESGGGLVQPGGSLRLSCAASGFTFSSYAMYWVRQAPGKGLEWVSAISGSAGSTYYADSVKGRFTISRDNSKNTLYLQMNSLRAEDTAVYYCARDTNDFWSGYSIFDPWGQGTLVTVSS VL: QSALTQPASVSGSPGQSITISCTGTSSDIGSYNLVSWYQQHPGKAPKLMIYEGTKRPSGVSNRFSGSKSGNTASLTISGLQAEDEADYYCCSYAGSRTYVFGGGTKLTVL | 535
